Tested on: Phospho-Rb Ser807/811 in OVCAR3 cells
Assay: OVCAR3 Phospho-Rb Ser807/811 HTRF assay
Type: cell-based
Conditions: Homo sapiens, OVCAR-3, 1 h, OVCAR3 cells, Phospho-Rb Ser807/811 HTRF, 1 hour incubation; read-out: pRb-OVCAR3 IC50
Experimental: Cells were trypsinized and resuspended in 1 mM hydroxyurea (Sigma; H8627), 90% RPMI and 10% fetal bovine serum. […] Dose response curve normalized to DMSO control was plotted using four-parameter logistic model for IC50 calculation.
Give measured pIC50 for each item. Keep answers brief.
Note on units: pIC50 is unitless, being -log10 of a concentration expressed in mol/L.

I am curious: what pIC50 value has been reported for CC(C)NC(=O)O[C@@H]1CC[C@H](c2cc(NC(=O)CSc3cccc(O)c3C=O)n[nH]2)C1 [Compound 96, trifluoroacetic acid] ?
6.22

Quick one: pIC50 of CC(=O)Nc1cc(C(=O)Nc2cc([C@H]3CC[C@@H](OC(=O)NC(C)C)C3)[nH]n2)ccc1C=O [Compound 37] ?
6.46

So what's the measured pIC50 for this one? CC(C)NC(=O)O[C@@H]1CC[C@H](c2cc(NC(=O)C3CCN(c4cccc(O)c4C=O)C3)n[nH]2)C1 (stereo partly drawn) [Compound 93]
6.41

Quick one: pIC50 for COc1cc(O)c(C=O)c(OCC(=O)Nc2cc([C@@H]3CC[C@H](OC(=O)NC(C)C)C3)[nH]n2)c1 [Compound 247] ?
7.00

// pIC50 lookup, key: COc1cc(O)c(C=O)c(OCC(=O)Nc2cc([C@H]3CC[C@@H](OC(=O)N4CC[C@H](C)C4)C3)[nH]n2)c1 [Compound 238]
7.48

If you can, please state the reported pIC50 value of CC(C)NC(=O)O[C@@H]1CC[C@H](c2cc(NC(=O)[C@H]3C[C@@H](Oc4cccc(O)c4C=O)C3)n[nH]2)C1 (single isomer, unassigned) [Compound 94] .
5.84

----------
Target: pCDK2-CCNE1 proteins (Homo sapiens)
Test: Identification of covalent binding by intact mass spectrometry, with and without competitor PF-06873600
Details: intact mass spectrometry after borohydride reduction; unmodified CDK2 34096-34097 Da
Endpoint label: Observed mass value of the covalent complex between compound and CDK2 protein (Da)
Kindly answer with a numeric value in Da, unit omitted.

Fill in: Observed mass value of the covalent complex between compound and CDK2 protein of CC(C)NC(=O)O[C@@H]1CC[C@H](c2cc(NC(=O)c3cc(-c4c(F)ccc(O)c4C=O)nn3C)n[nH]2)C1 [Compound 45] is ___
34579

So what's the measured Observed mass value of the covalent complex between compound and CDK2 protein for this one? C#Cc1cccc(OCC(=O)Nc2cc([C@H]3CC[C@@H](OC(=O)NC(C)C)C3)[nH]n2)c1C=O [Compound 51]
34519

I have this compound here, COc1cc(O)c(C=O)c(OCC(=O)Nc2cc([C@H]3CC[C@@H](OC(=O)NC(C)C)C3)[nH]n2)c1 [Compound 64] , and I need its recorded Observed mass value of the covalent complex between compound and CDK2 protein.
34539

Give the measured Observed mass value of the covalent complex between compound and CDK2 protein of COc1cc(O)c(C=O)c([C@@H]2C[C@H]2C(=O)Nc2cc([C@H]3CC[C@@H](OC(=O)NC(C)C)C3)[nH]n2)c1 (mixture of isomers) [Compound 89] .
34550

Consider the compound COc1cc(OC)c(C=O)c(OCC(=O)Nc2cc([C@H]3CC[C@@H](OC(=O)NC(C)C)C3)[nH]n2)c1 [Compound 103] and give its measured Observed mass value of the covalent complex between compound and CDK2 protein.
34554

Any idea what its Observed mass value of the covalent complex between compound and CDK2 protein is? The compound is CC(C)NC(=O)O[C@@H]1CC[C@H](c2cc(NC(=O)[C@@H](C)Oc3cccc(O)c3C=O)n[nH]2)C1 [Compound 32]
34525

Returns the measured Observed mass value of the covalent complex between compound and CDK2 protein for the input compound. Input: CC(C)NC(=O)O[C@@H]1CC[C@H](c2cc(NC(=O)c3cc(-c4cccc(O)c4C=O)nn3C)n[nH]2)C1 [Compound 17, 2,2,2-trifluoroacetate]
34561
